The reported numbers originate from PubChem BioAssay AID687016.

Target: E3 ubiquitin-protein ligase UHRF1 (Homo sapiens) (UniProt Q96T88)
Sequence (Q96T88 whole entry, looked up, the tested form may be a part): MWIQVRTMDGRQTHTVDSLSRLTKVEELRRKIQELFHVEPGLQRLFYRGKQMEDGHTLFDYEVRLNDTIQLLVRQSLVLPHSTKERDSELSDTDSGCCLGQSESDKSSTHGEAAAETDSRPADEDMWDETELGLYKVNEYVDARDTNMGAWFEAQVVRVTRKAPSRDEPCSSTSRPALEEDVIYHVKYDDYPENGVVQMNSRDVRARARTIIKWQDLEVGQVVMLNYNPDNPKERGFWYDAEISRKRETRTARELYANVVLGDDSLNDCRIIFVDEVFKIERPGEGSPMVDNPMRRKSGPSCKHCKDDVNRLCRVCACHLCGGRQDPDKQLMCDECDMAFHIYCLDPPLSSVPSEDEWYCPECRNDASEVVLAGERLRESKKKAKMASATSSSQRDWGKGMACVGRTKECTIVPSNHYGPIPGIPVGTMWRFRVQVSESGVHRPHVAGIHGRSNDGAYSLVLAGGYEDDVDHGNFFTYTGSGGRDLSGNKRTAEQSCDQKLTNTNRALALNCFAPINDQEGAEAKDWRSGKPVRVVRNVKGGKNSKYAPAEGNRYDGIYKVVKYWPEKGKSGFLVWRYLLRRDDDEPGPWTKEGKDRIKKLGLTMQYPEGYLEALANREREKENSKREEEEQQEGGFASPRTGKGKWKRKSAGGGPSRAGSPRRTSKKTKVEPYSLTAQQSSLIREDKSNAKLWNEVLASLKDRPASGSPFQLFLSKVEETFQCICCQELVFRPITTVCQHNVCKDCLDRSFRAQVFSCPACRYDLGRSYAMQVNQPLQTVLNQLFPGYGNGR
Assay: blockers of UHRF1 binding to methyl-oligo – biochemical, TR-FRET, human UHRF1, single concentration, counter-screen for MBD2 inhibitor project, primary screen (AID 687016);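 further: UHRF1 SRA domain binding a hemimethylated CpG hairpin DNA probe; 0% = median of test compound wells and 100% = reference inhibitor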
Conditions: UHRF1 binding to methylated oligo, at 4.4 µM, active compounds read high
Hit rate of the full screen: of about 370,000 compounds, about 2,800 (0.76%) were called active. What follows is part of a selection rich in actives, with near analogues and random picks from the rest.

{"Compound": "COc1cc(C(=O)OC2CCOC2=O)c([N+](=O)[O-])cc1OC (stereo unspecified)", "inhibition": "22.8% (active)"}
{"Compound": "O=C(CSc1nc2c(c(=O)[nH]1)CCCC2)N1CCCCC1", "inhibition": "4.3% (inactive)"}
{"Compound": "C[C@@H]1COc2cccc(N3CCCC3)c2S(=O)(=O)N1C", "inhibition": "0.4% (inactive)"}
{"Compound": "COc1ccc(S(=O)(=O)n2cnc3ccccc32)c(C)c1", "inhibition": "1.22% (inactive)"}
{"Compound": "COc1ccc(N2CCN(C(=O)CNC(=O)c3ccc(C(C)(C)C)cc3)CC2)cc1", "inhibition": "-2.46% (inactive)"}
{"Compound": "O=C(CCS(=O)(=O)c1ccc(Br)cc1)NCCc1ccc(Cl)cc1", "inhibition": "0.15% (inactive)"}
{"Compound": "CSc1nccc(NC(=O)c2ccc(C(C)(C)C)cc2)n1", "inhibition": "5.85% (inactive)"}
{"Compound": "CC(C)c1ccc(C(=O)OC2CCOC2=O)cc1 (stereo unspecified)", "inhibition": "0.68% (inactive)"}
{"Compound": "COc1cc(C(=S)N2CCOCC2)cc(OC)c1OC(=O)c1ccc([N+](=O)[O-])cc1[N+](=O)[O-]", "inhibition": "3.69% (inactive)"}
{"Compound": "CCOC(=O)[C@]12CCCC3=C1N(CCC3)C(=O)[C@@H](CC(=O)N1CCSCC1)C2", "inhibition": "-0.01% (inactive)"}
{"Compound": "COc1ccc(Cl)cc1NC(=O)COC(=O)c1ccc(Br)o1", "inhibition": "0.18% (inactive)"}

* * *

# inhibition values compiled below
Biological target: E3 ubiquitin-protein ligase UHRF1 (Homo sapiens) (UniProt Q96T88)
Test: blockers of UHRF1 binding to methyl-oligo – biochemical, TR-FRET, human UHRF1, single concentration, counter-screen for MBD2 inhibitor project, primary screen (AID 687016);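 further: UHRF1 SRA domain binding a hemimethylated CpG hairpin DNA probe; 0% = median of test compound wells and 100% = reference inhibitor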
Conditions: UHRF1 binding to methylated oligo, at 4.4 µM, active compounds read high
Among all 370,000 compounds or so, about 2,800 (0.76%) were called active. The sample holds actives, similar compounds and a random draw of the others, so the mix is not that of the screen.

{"Compound": "CCOC(=O)[C@]12CCCC3=C1N(CCC3)C(=O)[C@@H](CC(=O)NCC13CC4CC(CC(C4)C1)C3)C2", "inhibition": "-0.2% (inactive)"}
{"Compound": "CC(NC(=S)NC1CCCCC1)C(c1ccccc1)N1CCOCC1 (stereo not drawn)", "inhibition": "0.56% (inactive)"}
{"Compound": "CCCCCCCCNS(=O)(=O)/C=C/c1cc(C)ccc1CNC(=O)OC(C)(C)C", "inhibition": "-7.08% (inactive)"}

* * *

Target: E3 ubiquitin-protein ligase UHRF1 (Homo sapiens)
Test: blockers of UHRF1 binding to methyl-oligo – biochemical, TR-FRET, human UHRF1, single concentration, counter-screen for MBD2 inhibitor project, primary screen (AID 687016);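 further: UHRF1 SRA domain binding a hemimethylated CpG hairpin DNA probe; 0% = median of test compound wells and 100% = reference inhibitor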
Details: UHRF1 binding to methylated oligo, at 4.4 µM
The whole screen tested about 370,000 compounds, of which about 2,800 (0.76%) were called active. Cut-off read from the data, not from the text of the source: active = inhibition above about 21%; inactive = the rest. This is one part of a sample in which actives are shown more often than they occur.
Outcome codes: Yes = active, No = inactive

{"Compound": "COCCCN1C(=O)C(CC(=O)NCc2cccs2)CC(C(=O)N2CCOCC2)=C1C (stereo not given)", "Group label": "No"}
{"Compound": "CCCCN1C(=O)C(CC(=O)NCc2cccs2)CC(C(=O)N2CCCCCC2)=C1C (stereo not given)", "Group label": "No"}
{"Compound": "COc1ccc(CCNC(=O)CN(c2ccccc2)S(=O)(=O)c2ccccc2)cc1", "Group label": "No"}
{"Compound": "O=C(CCNC(=O)c1ccc([N+](=O)[O-])cc1)NC1CCCCC1", "Group label": "No"}
{"Compound": "COC(=O)Cc1ccc(OCC(=O)NC2CCCC2)cc1", "Group label": "No"}
{"Compound": "O=C(COC(=O)c1cc([N+](=O)[O-])ccc1NCc1ccccc1)NC1CCCCC1", "Group label": "No"}
{"Compound": "CCCCN1C(=O)C(CC(=O)NCc2cccs2)CC(C(=O)N2CCOCC2)=C1C (stereo not given)", "Group label": "Yes"}
{"Compound": "CCOc1ccc(N(CC(=O)NCCOc2ccccc2OC)S(=O)(=O)c2ccccc2)cc1", "Group label": "Yes"}
{"Compound": "Cc1ccc(C(=O)COC(=O)CCCC(=O)NC2CCCCC2)cc1[N+](=O)[O-]", "Group label": "Yes"}
{"Compound": "C=CCN1C(=O)[C@@H](CC(=O)N2CCN(C(=O)c3ccco3)CC2)[C@]2(C(=O)OC)CCCCC=C12", "Group label": "No"}
